# subject-of-test: human sphingosine-1-phosphate receptor 1 (S1P1) (Homo sapiens (Human))
# test-description: β-Arrestin2 recruitment assay (PathHunter), S1P1 CHO-K1 cells
# Type: cell-based
# experimental-conditions: CHO-K1; efficacy (SPAN) normalized to fingolimod; read-out: hS1P1 B-arrestin2 SPAN
# Sequence (P21453 whole entry, looked up): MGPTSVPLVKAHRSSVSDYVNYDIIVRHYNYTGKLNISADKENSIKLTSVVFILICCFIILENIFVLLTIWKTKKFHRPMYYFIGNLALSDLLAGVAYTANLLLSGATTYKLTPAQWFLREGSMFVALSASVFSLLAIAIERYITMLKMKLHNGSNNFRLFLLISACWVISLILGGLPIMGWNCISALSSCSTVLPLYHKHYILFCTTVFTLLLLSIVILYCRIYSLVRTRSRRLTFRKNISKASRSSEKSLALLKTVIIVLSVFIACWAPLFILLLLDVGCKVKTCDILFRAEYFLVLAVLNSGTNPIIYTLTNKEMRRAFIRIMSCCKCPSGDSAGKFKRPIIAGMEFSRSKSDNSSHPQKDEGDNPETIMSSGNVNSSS
# Sequence (P32121 whole entry partner, looked up): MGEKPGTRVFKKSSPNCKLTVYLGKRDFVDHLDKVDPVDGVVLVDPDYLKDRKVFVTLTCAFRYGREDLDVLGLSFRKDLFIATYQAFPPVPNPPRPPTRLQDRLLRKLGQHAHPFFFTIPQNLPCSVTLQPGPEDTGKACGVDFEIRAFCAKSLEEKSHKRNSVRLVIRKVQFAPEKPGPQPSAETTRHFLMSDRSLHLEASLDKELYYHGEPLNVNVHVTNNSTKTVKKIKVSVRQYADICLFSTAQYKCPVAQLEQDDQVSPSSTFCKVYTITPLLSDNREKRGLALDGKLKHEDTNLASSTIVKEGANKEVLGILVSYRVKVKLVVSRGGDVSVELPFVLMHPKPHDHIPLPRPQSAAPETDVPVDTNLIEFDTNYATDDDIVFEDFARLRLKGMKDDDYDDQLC
measured-endpoint: Emax

In [3]: df
Out[3]:
                                     smiles  obs_value
0  CC(C)Oc1ccccc1-c1noc(-c2ccc3c(ccn3C(C)C)c2)n1      < 75%
1  CSc1ccc(-c2nc(-c3ccc4c(c3)nnn4C3CCCC3)no2)cc1      < 75%
2  C=CCNc1ccc(-c2nc(-c3ccc4c(c3)CCC(=O)N4)no2)cc1C#N      > 75%
3  CC(C)Oc1ccc(-c2nc(-c3ccc4c(c3)nnn4C3CCCC3)no2)cc1C(F)(F)F      < 75%
4    CC(C)n1nnc2cc(-c3nc4c(Cl)cccc4o3)ccc21      > 75%
5  O=C1CC2(CCCC2)Oc2ccc(-c3nc(-c4ccncc4)no3)cc21      < 75%
6  Cc1ccncc1-c1noc(-c2ccc3c(c2)nnn3C(C)C)n1      > 75%
7  CC1(C)CCC2(CC1)CC(=O)c1cc(-c3nc(-c4cccnc4)no3)ccc1O2      < 75%
8  CC(C)(O)Cn1nnc2cc(-c3nc(-c4ccncc4C(F)(F)F)no3)ccc21      > 75%

* * *

# subject-of-test: hERG channel (Homo sapiens (Human))
# Sequence (Q12809 whole entry): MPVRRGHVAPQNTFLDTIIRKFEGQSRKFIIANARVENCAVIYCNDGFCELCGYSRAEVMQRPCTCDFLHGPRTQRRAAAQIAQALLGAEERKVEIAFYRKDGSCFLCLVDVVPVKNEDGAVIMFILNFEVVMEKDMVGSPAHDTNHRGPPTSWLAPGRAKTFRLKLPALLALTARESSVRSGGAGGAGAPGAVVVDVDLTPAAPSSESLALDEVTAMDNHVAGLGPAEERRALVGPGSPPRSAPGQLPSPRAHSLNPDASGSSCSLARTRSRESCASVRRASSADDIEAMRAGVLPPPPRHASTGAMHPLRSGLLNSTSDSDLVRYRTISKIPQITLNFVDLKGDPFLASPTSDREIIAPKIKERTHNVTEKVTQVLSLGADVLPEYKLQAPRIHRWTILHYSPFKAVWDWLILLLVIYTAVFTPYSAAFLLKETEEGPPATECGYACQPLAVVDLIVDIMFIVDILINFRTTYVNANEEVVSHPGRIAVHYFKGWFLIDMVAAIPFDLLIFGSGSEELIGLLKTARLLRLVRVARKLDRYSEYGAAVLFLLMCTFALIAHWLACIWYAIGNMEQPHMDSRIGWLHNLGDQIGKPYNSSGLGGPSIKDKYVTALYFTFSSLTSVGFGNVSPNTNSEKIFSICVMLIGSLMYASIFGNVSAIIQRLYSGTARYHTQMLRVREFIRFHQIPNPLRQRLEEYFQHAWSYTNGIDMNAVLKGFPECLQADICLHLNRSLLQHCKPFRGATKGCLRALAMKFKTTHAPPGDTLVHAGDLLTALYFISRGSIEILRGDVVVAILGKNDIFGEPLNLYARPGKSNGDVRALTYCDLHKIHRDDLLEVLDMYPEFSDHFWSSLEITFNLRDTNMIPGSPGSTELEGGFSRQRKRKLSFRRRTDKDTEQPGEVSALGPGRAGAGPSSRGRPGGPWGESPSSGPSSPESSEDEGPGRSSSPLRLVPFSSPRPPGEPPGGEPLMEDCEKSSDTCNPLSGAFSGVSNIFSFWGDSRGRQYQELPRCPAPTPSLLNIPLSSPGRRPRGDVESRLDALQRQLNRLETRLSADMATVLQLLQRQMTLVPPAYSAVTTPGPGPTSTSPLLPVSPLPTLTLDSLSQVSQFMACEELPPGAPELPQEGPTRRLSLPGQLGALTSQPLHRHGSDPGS
# test-description: Automated Qpatch patch-clamp hERG assay
Reported IC50 by item:
measured-endpoint: IC50

>>> print(df.to_string())
                                     smiles  obs_value
0  CCC1(CC)CC(=O)c2cc(-c3nc(-c4cn[nH]c4)no3)ccc2O1    > 10 µM
1  COc1ccc(-c2noc(-c3ccc4c(c3)nnn4CC(C)(C)O)n2)c(C)c1    > 10 µM
2   CC(C)Oc1ccc(-c2ncc(-c3ccccn3)cn2)cc1C#N    > 10 µM
3  CC(C)Nc1ccc(-c2nc(-c3ccc4nonc4c3)no2)cc1C#N    > 10 µM
4  CC(C)Oc1ccc(-c2ncc(-c3ccnc(O)c3)cn2)cc1C#N    > 10 µM

* * *

Reported Emax by item:
# subject-of-test: human sphingosine-1-phosphate receptor 1 (S1P1) (Homo sapiens (Human))
# test-description: Inhibition of cAMP production (HTRF cAMP HiRange), S1P1 CHO-K1 cells
# Format: cell-based
# experimental-conditions: CHO-K1; efficacy (SPAN) normalized to fingolimod; read-out: hS1P1 cAMP SPAN
# Sequence (P21453 whole entry, looked up): as the sequence (P21453 whole entry, looked up) above
measured-endpoint: Emax

>>> df
                                    compound                           subject_of_test  measured_endpoint  obs_value
 0  COc1cc(NC(C)=O)ccc1-c1noc(-c2ccc3c(c2)nnn3C(C)C)n1 [Compound 532]  human sphingosine-1-phosphate receptor 1 (S1P1) (Homo sapiens (Human))               Emax      > 75%
 1  O=C1CC2(CCC(F)(F)CC2)Oc2ccc(-c3nc(-c4cccnc4)no3)cc21 [Compound 36]  human sphingosine-1-phosphate receptor 1 (S1P1) (Homo sapiens (Human))               Emax      < 75%
 2  CCC1(CC)CC(=O)c2cc(-c3nc(-c4ccc(O)nc4)no3)ccc2O1 [Compound 105]  human sphingosine-1-phosphate receptor 1 (S1P1) (Homo sapiens (Human))               Emax      < 75%
 3  c1cc(-c2noc(-c3ccc4c(c3)nnn4C3CC3)n2)ccn1 [Compound 295]  human sphingosine-1-phosphate receptor 1 (S1P1) (Homo sapiens (Human))               Emax      > 75%
 4  CC(C)Cn1nnc2cc(-c3nc4c(Br)cccc4o3)ccc21 [Compound 461]  human sphingosine-1-phosphate receptor 1 (S1P1) (Homo sapiens (Human))               Emax      > 75%
 5  FC(F)(F)c1cc(-c2noc(-c3ccc4c(c3)nnn4C3CC3)n2)ccc1OCc1ccccc1 [Compound 85]  human sphingosine-1-phosphate receptor 1 (S1P1) (Homo sapiens (Human))               Emax      < 75%
 6  Cc1nccnc1-c1nc(-c2ccc3c(c2)nnn3C(C)(C)CO)no1 [Compound 641]  human sphingosine-1-phosphate receptor 1 (S1P1) (Homo sapiens (Human))               Emax      < 75%
 7  CCCn1nnc2cc(-c3nc(-c4cccc(C(F)(F)F)c4)no3)ccc21 [Compound 242]  human sphingosine-1-phosphate receptor 1 (S1P1) (Homo sapiens (Human))               Emax      < 75%
 8  CC(C)n1nnc2cc(-c3noc(-c4ccccc4C#N)n3)ccc21 [Compound 279]  human sphingosine-1-phosphate receptor 1 (S1P1) (Homo sapiens (Human))               Emax      > 75%
 9  CC(C)n1nnc2cc(-c3noc(-c4ccccc4F)n3)ccc21 [Compound 307]  human sphingosine-1-phosphate receptor 1 (S1P1) (Homo sapiens (Human))               Emax      > 75%
10  CNc1ccccc1-c1coc(-c2ccc3c(c2)nnn3C(C)C)n1 [Compound 587]  human sphingosine-1-phosphate receptor 1 (S1P1) (Homo sapiens (Human))               Emax      < 75%
11  CC(C)n1nnc2cc(-c3nc4c(Cl)cccc4o3)ccc21 [Compound 427]  human sphingosine-1-phosphate receptor 1 (S1P1) (Homo sapiens (Human))               Emax      > 75%
12  COc1ccc(-c2noc(-c3ccc4c(c3)nnn4C(C)C)n2)cc1OC [Compound 230]  human sphingosine-1-phosphate receptor 1 (S1P1) (Homo sapiens (Human))               Emax      < 75%
13  Cc1ccc(-c2nc(-c3ccc4c(c3)nnn4C(C)C)no2)cn1 [Compound 119]  human sphingosine-1-phosphate receptor 1 (S1P1) (Homo sapiens (Human))               Emax      < 75%
14  CC(C)Nc1ccc(-c2nc(-c3ccc4sc(N)nc4c3)no2)cc1C#N [Compound 441]  human sphingosine-1-phosphate receptor 1 (S1P1) (Homo sapiens (Human))               Emax      > 75%
15  CC(C)Cn1nnc2cc(-c3nc4ccncc4o3)ccc21 [Compound 504]  human sphingosine-1-phosphate receptor 1 (S1P1) (Homo sapiens (Human))               Emax      > 75%
16  Cc1ncc(-c2nc(-c3ccc4c(c3)nnn4C(C)C)no2)nc1C [Compound 133]  human sphingosine-1-phosphate receptor 1 (S1P1) (Homo sapiens (Human))               Emax      < 75%
17  Cc1ccccc1-c1noc(-c2ccc3c(c2)nnn3C(C)C)n1 [Compound 293]  human sphingosine-1-phosphate receptor 1 (S1P1) (Homo sapiens (Human))               Emax      > 75%
18  N#Cc1cc(-c2nnc(-c3ccc4[nH]cnc4c3)o2)ccc1NC(CF)CF [Compound 600]  human sphingosine-1-phosphate receptor 1 (S1P1) (Homo sapiens (Human))               Emax      > 75%
19  COc1ccc(-c2coc(-c3ccc4c(c3)nnn4C(C)C)n2)cc1 [Compound 250]  human sphingosine-1-phosphate receptor 1 (S1P1) (Homo sapiens (Human))               Emax      < 75%
20  COC(=O)C12C3C4C1C1C2C3C41c1nc(-c2ccc3c(c2)nnn3C(C)C)no1 (stereo not drawn) [Compound 378]  human sphingosine-1-phosphate receptor 1 (S1P1) (Homo sapiens (Human))               Emax      < 75%
21  CC(C)n1nnc2cc(-c3noc(-c4ccc(COc5ccccc5)cc4)n3)ccc21 [Compound 131]  human sphingosine-1-phosphate receptor 1 (S1P1) (Homo sapiens (Human))               Emax      < 75%
22  CC(C)n1nnc2cc(-c3nc(-c4ccccc4)no3)ccc21 [Compound 79]  human sphingosine-1-phosphate receptor 1 (S1P1) (Homo sapiens (Human))               Emax      > 75%
23  CC(C)n1ccc2cc(-c3nc(-c4ccccc4F)cs3)ccc21 [Compound 403]  human sphingosine-1-phosphate receptor 1 (S1P1) (Homo sapiens (Human))               Emax      < 75%
24  FC(F)(F)c1cc(Br)ccc1-c1noc(-c2ccc3c(c2)nnn3C2CCCC2)n1 [Compound 114]  human sphingosine-1-phosphate receptor 1 (S1P1) (Homo sapiens (Human))               Emax      < 75%
25  N#Cc1cc(-c2nnc(-c3ccc4[nH]ncc4c3)o2)ccc1NCC(F)F [Compound 354]  human sphingosine-1-phosphate receptor 1 (S1P1) (Homo sapiens (Human))               Emax      > 75%
26  Cc1cnc(-c2noc(-c3ccc4c(c3)nnn4C3CCOCC3)n2)cn1 [Compound 6]  human sphingosine-1-phosphate receptor 1 (S1P1) (Homo sapiens (Human))               Emax      < 75%
27  Brc1ccccc1-c1nc(-c2ccc3c(c2)nnn3CC2CC2)no1 [Compound 98]  human sphingosine-1-phosphate receptor 1 (S1P1) (Homo sapiens (Human))               Emax      > 75%
28  CC(=O)Nc1ccc(-c2noc(-c3ccc(NC(C)C)c(C#N)c3)n2)cc1 [Compound 316]  human sphingosine-1-phosphate receptor 1 (S1P1) (Homo sapiens (Human))               Emax      > 75%
29  CC(F)(F)CNc1ccc(-c2nc(-c3ccc4c(c3)CCC(=O)N4)no2)cc1C#N [Compound 347]  human sphingosine-1-phosphate receptor 1 (S1P1) (Homo sapiens (Human))               Emax      > 75%
30  CCC1(CC)CC(=O)c2cc(-c3nc(-c4cncc(NS(C)(=O)=O)c4)no3)ccc2O1 [Compound 545]  human sphingosine-1-phosphate receptor 1 (S1P1) (Homo sapiens (Human))               Emax      > 75%
31  Cc1ccccc1-c1coc(-c2ccc3c(c2)nnn3C(C)C)n1 [Compound 433]  human sphingosine-1-phosphate receptor 1 (S1P1) (Homo sapiens (Human))               Emax      > 75%
32  COc1cccnc1-c1nc(-c2ccc3c(c2)nnn3C(C)C)no1 [Compound 612]  human sphingosine-1-phosphate receptor 1 (S1P1) (Homo sapiens (Human))               Emax      < 75%
33  CCC1(CC)CC(=O)c2cc(-c3nc(-c4ccc(O)cc4)no3)ccc2O1 [Compound 72]  human sphingosine-1-phosphate receptor 1 (S1P1) (Homo sapiens (Human))               Emax      > 75%
34  Cc1ccc(-c2nc(-c3ccc4c(c3)nnn4C(C)C)no2)s1 [Compound 74]  human sphingosine-1-phosphate receptor 1 (S1P1) (Homo sapiens (Human))               Emax      < 75%
35  COc1ccccc1-c1noc(-c2ccc3c(c2)nnn3C2CC2)n1 [Compound 173]  human sphingosine-1-phosphate receptor 1 (S1P1) (Homo sapiens (Human))               Emax      > 75%
